Target: T1, Chryseobacterium sp-62563 deamidase polypeptide (second polypeptide, deamidase domain), wildtype (Chryseobacterium sp-62563)
T1 sequence: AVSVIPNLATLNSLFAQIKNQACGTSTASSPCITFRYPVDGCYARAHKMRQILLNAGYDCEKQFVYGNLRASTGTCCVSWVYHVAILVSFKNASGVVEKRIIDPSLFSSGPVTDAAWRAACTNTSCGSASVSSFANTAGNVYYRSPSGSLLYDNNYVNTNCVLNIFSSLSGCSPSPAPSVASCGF
Assay: cell-based or functional assay
Readout Label: Relative activity of maturated deamidase (% initial rate)

Binder: Chryseobacterium sp-62563 propeptide N1C (protein) CQDPNLVAKESNETAMKDFGKTVPVGIEKEDGKFKISFMVTAQPYEIKDSKENAAYISMIKTAVENETPIHVFLKANTNEIAKVDKATDDDIRYFKSVFTKEVKEENRK
Observed Result: 27

A = Chryseobacterium sp-62563 propeptide T41E (protein) NQDPNLVAKESNETAMKDFGKTVPVGIEKEDGKFKISFMVEAQPYEIKDSKENAAYISMIKTAVENETPIHVFLKANTNEIAKVDKATDDDIRYFKSVFTKEVKEENRK
B = Chryseobacterium sp-62563 propeptide E65P (protein) NQDPNLVAKESNETAMKDFGKTVPVGIEKEDGKFKISFMVTAQPYEIKDSKENAAYISMIKTAVPNETPIHVFLKANTNEIAKVDKATDDDIRYFKSVFTKEVKEENRK
Exercise: Between A and B , which one shows the larger Relative activity of maturated deamidase (% initial rate) value? The response must carry the label of the picked entry.
Solution: A
(A: 67, B: 30)

a = Chryseobacterium sp-62563 propeptide F19P (protein) NQDPNLVAKESNETAMKDPGKTVPVGIEKEDGKFKISFMVTAQPYEIKDSKENAAYISMIKTAVENETPIHVFLKANTNEIAKVDKATDDDIRYFKSVFTKEVKEENRK
b = Chryseobacterium sp-62563 propeptide F99Q (protein) NQDPNLVAKESNETAMKDFGKTVPVGIEKEDGKFKISFMVTAQPYEIKDSKENAAYISMIKTAVENETPIHVFLKANTNEIAKVDKATDDDIRYFKSVQTKEVKEENRK
Exercise: Between a and b , which one shows the larger Relative activity of maturated deamidase (% initial rate) value? The response must carry the label of the picked entry.
Solution: a
